Measured values drawn from the supplement of paper PMC9112550 for this set.

- Tested on: Escherichia coli TOP10;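 further: peptides expressed intracellularly from a pBAD plasmid library in pooled LB shake-flask culture, induced with 0.3% L-arabinose, DNA abundance read by NGS, three biological replicates, DESeq2 with apeglm shrinkage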
- assay procedure: shrunken log2 fold change of peptide-encoding DNA abundance (4.5 h post-induction vs induction); higher = less antimicrobial activity (less host growth inhibition)
- test context: time post-induction: 4.5 h; library: site-saturation at positions 5, 18, 19, 20
Give yes (1) when the value for shrunken log2 fold change is at least 0.1. Give no (0) when it is less.

> print(dat)
          primary.sequence  assigned.category
1  RRIRHRPPRLPRPRPRPHKDPRP             no (0)
2  RRIRFRPPRLPRPRPRPPGMPRP            yes (1)
3  RRIRARPPRLPRPRPRPLLEPRP            yes (1)
4  RRIRERPPRLPRPRPRPYPPPRP             no (0)
5  RRIRTRPPRLPRPRPRPVANPRP            yes (1)
6  RRIRSRPPRLPRPRPRPCFIPRP             no (0)
7  RRIRTRPPRLPRPRPRPIHDPRP             no (0)
8  RRIRDRPPRLPRPRPRPVPNPRP             no (0)
